# Tested on: EAS associated adrenal hyperplasia cultures
# EXPERIMENT_SUMMARY: Cortisol production in primary EAS associated adrenal hyperplasia cultures
# Assay type: cell-based, human
# MEASUREMENT_CONTEXT: Homo sapiens, 72 h, EAS associated hyperplasia no. 2, basal condition, 3 days; read-out: IC50 inhibition of cortisol production
# Description: To obtain primary cultures, adrenal specimens (adrenocortical adenomas, adrenal hyperplasias and adrenocortical carcinomas) were collected after adrenalectomy at the department of Surgery, Erasmus University Medical Center, Rotterdam, the Netherlands, between April 2016 and May 2018. […] Cell viability and cell amount were counted by trypan blue exclusion. […]
MEASURED_QUANTITY: IC50 (nM)
I only need the number, in nM, no unit after it.

Query block: Find the measured IC50: item CC(=O)N1CCN(c2ccc(OCC3COC(Cn4ccnc4)(c4ccc(Cl)cc4Cl)O3)cc2)CC1 (racemic) [racemic ketoconazole, Ketoconazole] , target or system EAS associated adrenal hyperplasia cultures.
Result block: 29.6
